Origin of measurements: paper PMC9698716

Tested on: IMS-M2
Test: CellTiter Blue cell viability assay
Format: cell-based, human
Conditions: IMS-M2, 48 h; read-out: cellular IC50
measurement-label: pIC50
Please express pIC50 as -log10 of the molar concentration.

## Input Sample Cc1ccc2nc(CN(CCN(Cc3nc4ccc(C)cc4[nH]3)Cc3nc4ccc(C)cc4[nH]3)Cc3nc4ccc(C)cc4[nH]3)[nH]c2c1 [NSC348884, reference compound] — what was its pIC50?
## Output 5.12

----------
Target: AKT1 (Homo sapiens, UniProt P31749)
Construct: purchased Kinase Logistics, Meyn, Germany #Aps 01-101
Sequence (P31749 whole entry): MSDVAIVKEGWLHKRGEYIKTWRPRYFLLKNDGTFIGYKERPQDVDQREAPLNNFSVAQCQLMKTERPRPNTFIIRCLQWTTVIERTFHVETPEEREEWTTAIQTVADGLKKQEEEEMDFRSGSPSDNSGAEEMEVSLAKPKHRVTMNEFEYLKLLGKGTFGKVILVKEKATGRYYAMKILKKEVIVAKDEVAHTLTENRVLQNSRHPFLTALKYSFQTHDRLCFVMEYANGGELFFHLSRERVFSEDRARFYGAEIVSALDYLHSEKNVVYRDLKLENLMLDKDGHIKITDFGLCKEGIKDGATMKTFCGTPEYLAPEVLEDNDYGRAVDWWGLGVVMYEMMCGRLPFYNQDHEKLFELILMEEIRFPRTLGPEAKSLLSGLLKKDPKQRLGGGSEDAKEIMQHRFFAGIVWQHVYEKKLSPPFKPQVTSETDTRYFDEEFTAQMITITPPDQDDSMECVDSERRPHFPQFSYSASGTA
Assay: AKT1 enzymatic inhibition assay
Format: biochemical
Details: from AKT1 IC50, N = heavy atoms
measurement-label: Ligand efficiency (LE = 1.4 pIC50/N)
Answer format: number, then unit.

Past entries and their recorded results:
O=c1[nH]c(-c2ccc(O)c(O)c2)nc2sc3c(c12)CCC3 [T128]; 0.30 kcal mol^−1 N^−1
Cc1cc(-c2ccccc2)nc2nc(NC(=O)c3ccc(O)c(O)c3)nn12 [T101]; 0.29 kcal mol^−1 N^−1
O=c1[nH]c(-c2ccc(O)c(O)c2)nc2sc3c(c12)CCCCC3 [T124]; 0.27 kcal mol^−1 N^−1

## Input Sample NC(=O)c1c(NC(=O)c2ccc(F)cc2F)sc2c1CCCCC2 [T187] — what was its Ligand efficiency (LE = 1.4 pIC50/N)?
## Output 0.28 kcal mol^−1 N^−1
